Test: qHTS assay to identify small molecule agonists of the estrogen related receptor signaling pathway with the pleiotropic PPARgamma coactivator (PGC) from Tox21 10K library (AID 1224842); also: nearly all actives have a fitted effect of over 15% in size
Conditions: PGC/ERR reporter cell line, luciferase ONE-Glo, 18 h; series mostly up to 92.4 µM
Results filed as inconclusive are left out. Active and inactive are the calls of the source. Calls follow the shape of the dose curve; as a rule, active = well fitted activation curve with a large enough effect in the repeat runs; inconclusive = weak or mixed curves, or effect the other way; inactive = no such curve, though single readings can be large or run the other way.
Possible outcomes: class 1 (active), class 0 (inactive)

# MOLECULE, QUALITATIVE_LABEL
rows = [
    ("COC1=C(OC)C(=O)C(CCCCCCCCCCO)=C(C)C1=O", "class 0"),
    ("CCCCCCCC/C=C\\CCCCCCCCN", "class 0"),
    ("Cc1cc(-c2ccc(N=Nc3cc(S(=O)(=O)O)c4ccccc4c3N)c(C)c2)ccc1N=Nc1cc(S(=O)(=O)O)c2ccccc2c1N", "class 0"),
    ("Cc1cccc2cccnc12", "class 0"),
    ("CCCCN(CCCC)CC(O)c1cc(Cl)cc2c1-c1ccc(Cl)cc1/C2=C/c1ccc(Cl)cc1 (centres undefined)", "class 0"),
    ("O=C(O)c1cc(-c2ccc(F)cc2F)ccc1O", "class 0"),
    ("Nc1ccc(C(=O)O)c(O)c1", "class 0"),
    ("Cc1ccc(C(=O)O)cc1", "class 0"),
    ("CC1(C)[C@@H](O)CC[C@]2(C)[C@H]3C(=O)C=C4[C@@H]5C[C@@](C)(C(=O)O)CC[C@]5(C)CC[C@@]4(C)[C@]3(C)CC[C@@H]12", "class 0"),
    ("Cc1ccc(N/N=c2\\c(=O)cc/c(=N\\Nc3ccc(S(=O)(=O)O)cc3)c2=O)c(C)c1", "class 0"),
    ("C#CC1(O)CC[C@H]2[C@@H]3CCC4=CCCC[C@@H]4[C@H]3CC[C@@]21C (some centres undefined)", "class 0"),
    ("CCOc1ccc2ccccc2c1C(=O)N[C@@H]1C(=O)N2[C@@H]1SC(C)(C)[C@@H]2C(=O)O", "class 0"),
    ("CCO[C@@H]1O[C@H](C(COCc2ccccc2)OCc2ccccc2)[C@H](OCc2ccccc2)[C@H]1O (some centres undefined)", "class 0"),
    ("S=c1nccc[nH]1", "class 0"),
    ("CC(C)(C)C1CCC(=O)CC1", "class 0"),
    ("CCc1ccc(Br)cc1", "class 0"),
    ("CCCCCCCC", "class 0"),
    ("CCCCCCC1CCCC(=O)O1 (centres undefined)", "class 0"),
    ("O=C(O)c1cccc(C(F)(F)F)c1", "class 0"),
    ("CC1=Nc2ccccc2C1(C)C", "class 1"),
    ("O=C1C(c2[nH]c3ccc(S(=O)(=O)O)cc3c2O)=Nc2ccc(S(=O)(=O)O)cc21", "class 0"),
    ("OC[C@H]1O[C@H](O[C@H]2O[C@H](CO)[C@@H](O)[C@H](O)[C@H]2O)[C@H](O)[C@@H](O)[C@@H]1O", "class 0"),
    ("Cc1cccc(C(=O)O)c1O", "class 0"),
    ("COc1cc(/C=C/c2ccccc2)oc(=O)c1", "class 1"),
]

Reference source for all entries: PubChem BioAssay (Tox21)
